test: NCI Yeast Anticancer Drug Screen. Data for the rad50 strain (AID 155);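 also: 0% = growth of vehicle-only cultures of the same strain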; conditions: S. cerevisiae rad50 strain growth inhibition; at 5.0 µM (retest, dose inferred, filed as 0.5); hits give high values
About 79,000 compounds went through this panel and 15% of them were active in at least one assay; those are over-represented in the sample as a whole.
readout name: growth inhibition (%)
Output spec: scalar in %, unitless text.

## Task Given the entry CC(=O)C1CCC2C3CCC4CC([N+]5(C)CCCCC5)CCC4(C)C3CCC12C (stereo not drawn) , report its measured growth inhibition.
## Result 2

## Task Given the entry O=P1(NCCCl)OC(c2ccccc2)=CCN1CCCl (stereo not drawn) , report its measured growth inhibition.
## Result -1

## Task Given the entry O=C(N/N=C/c1cc(Cl)cc(Cl)c1[O-])c1ccccc1O.O=C(N/N=C/c1cc(Cl)cc(Cl)c1[O-])c1ccccc1O.[Zn+2] , report its measured growth inhibition.
## Result 93

---

test: NCI Yeast Anticancer Drug Screen. Data for the mec2-1 strain (AID 157); settings: S. cerevisiae mec2-1 strain, at 50.0 µM
This is part of a sample that, as a whole, favours compounds with a hit. Of some 79,000 tested, about 15% had one in any assay. The source made the active and inactive calls. Rule as the data show it: active = growth inhibition above about 70%; inactive = the rest.
I would appreciate it if you answered using one of these outcomes: active, inactive

Look over these answered cases.
ClC1=C(Cl)C(Cl)(Cl)SS1; active
O=C(CI)c1ccc[nH]1; active
O=[N+]([O-])c1ccc(O)c(CCl)c1; inactive
CCOC(=O)C1CC12c1ccccc1-c1ccccc12 (configuration not stated); inactive
Fc1ccc(NP(=S)(Nc2ccc(F)cc2F)Nc2ccc(F)cc2F)c(F)c1; active
CCNC(C)(C)C(SS)c1ccc(Br)cc1 (configuration not stated); inactive
CCOC(=O)c1ccccc1N; inactive
CC(=O)O[C@H]1CC[C@H]2[C@@H]3CC[C@H]4CC(=O)CC[C@@H]4[C@H]3CC[C@]12C; inactive

## Task What did this assay record as the result for Cc1oc2c([N+](=O)[O-])cccc2c1[N+](=O)[O-] ?
## Result active

## Task What did this assay record as the result for C[n+]1ccccc1-c1nc(-c2cccc[n+]2C)nc(-c2cccc[n+]2C)n1 ?
## Result inactive

## Task What did this assay record as the result for Br[Se]c1ccccn1 ?
## Result active

## Task What did this assay record as the result for CCCCN(CCCC)CCc1ccc(OC(=O)c2ccc(N)cc2)cc1 ?
## Result active

---

experiment: NCI Yeast Anticancer Drug Screen. Data for the mlh1 rad18 strain (AID 175); details: S. cerevisiae mlh1 rad18 strain growth inhibition; at 50.0 µM (retest, dose inferred, filed as 5.0); hits give high values
This is part of a sample that, as a whole, favours compounds with a hit. Of some 79,000 tested, about 15% had one in any assay.
Rule: growth inhibition of 60% or more gives Criterion met; anything lower gives Criterion not met.

Look over these answered cases.
CC1=[N+](Cc2cc(C)cc(C)c2O)CCCC1; Criterion not met
CC1(C)N([O-])[N+](=O)C1(C)Br (stereo not drawn); Criterion not met

## Task Hi, just wondering whether COc1ccccc1[As]=O (stereo not drawn) shows growth inhibition of 60% or higher.
## Result Criterion met

## Task Hi, just wondering whether CC(C)=CC1CC(C)C2(CCC3(C)CC4C(C(=O)CC4(C)O)/C(C=O)=C\CC32)O1 (stereo not drawn) shows growth inhibition of 60% or higher.
## Result Criterion met

## Task Hi, just wondering whether COC([CH2][Hg][n]1cnc2c1c(=O)n(C)c(=O)n2C)CN1C(=O)c2ccccc2S1(=O)=O (stereo not drawn) shows growth inhibition of 60% or higher.
## Result Criterion met

## Task Hi, just wondering whether CCC[CH2][Sn]([CH2]CCC)([S]C#N)[S]C#N shows growth inhibition of 60% or higher.
## Result Criterion met

## Task Hi, just wondering whether N=C(N)c1ccccc1 shows growth inhibition of 60% or higher.
## Result Criterion not met

---

Recorded growth inhibition by entry
experiment: NCI Yeast Anticancer Drug Screen. Data for the rad50 strain (AID 155);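 also: 0% = growth of vehicle-only cultures of the same strain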; details: S. cerevisiae rad50 strain growth inhibition; at 11.0 µM; hits give high values
The panel holds about 79,000 compounds, 15% with a hit somewhere; the sample as a whole holds those more often.
Output spec: scalar in %, unitless text.

N#CC(C#N)=Cc1ccc(C#N)cc1; 2
Cn1cc(NC(=O)c2cc(NC(=O)CN=C(N)N)cn2C)cc1C(=O)NCCC(=N)N; 67
O=C1C=C(CN(CCCl)CCCl)C(=O)C=C1CN(CCCl)CCCl; 0
CCCCN(CCCC)CC(C(C)=O)C(c1ccccc1)c1c(O)c2ccccc2oc1=O (stereo not drawn); 4
CC(=O)O/C(=C1\C[C@H]2[C@@H]3CC=C4C[C@@H](OC(C)=O)CC[C@]4(C)[C@H]3CC[C@]2(C)C1=O)C(F)(F)F; 7

## Task Given the entry CCOP(=O)(CC(C)P(=O)(OCC)OCC)OCC.C[CH2][Sn]([Cl])([Cl])[CH2]C (stereo not drawn) , report its measured growth inhibition.
## Result -2

## Task Given the entry O=C(O)C1C2c3ccccc3C(c3ccccc32)C1C(=O)O (stereo not drawn) , report its measured growth inhibition.
## Result 4

## Task Given the entry COC(=O)C1C2c3ccccc3C(c3ccccc32)C1C(=O)OC (stereo not drawn) , report its measured growth inhibition.
## Result 3

---

Assay: NCI Yeast Anticancer Drug Screen. Data for the bub3 strain (AID 167)
Details: S. cerevisiae bub3 mutant strain, at 5.0 µM (retest, dose inferred, filed as 0.5), hits give high values
Description: Growth inhibition of yeast strains with defined genetic alterations is measured as a screen for potential anti-cancer activity. Selected strains with alterations in DNA damage repair or cell cycle control were exposed to compounds and growth inhibition was measured relative to vehicle treated controls. The strain used in this assay is bub3
The panel holds about 79,000 compounds, 15% with a hit somewhere; the sample as a whole holds those more often.
readout name: growth inhibition (%)
Output spec: scalar in %, unitless text.

Worked cases, answers included:
C=CCN1C(=O)NC(=O)/C(=C/c2c3ccccc3cc3ccccc23)C1=O; 83
ClCCCCCl; 4
O=C(O)C1C2c3ccccc3C(c3ccccc32)C1Br (stereo not drawn); -20
C[CH2][Hg][Cl]; 100
C[As](C)SCC1OC2OC(C)(C)OC2C2OC(C)(C)OC12 (stereo not drawn); 44

## Task Given the entry [Se]c1ncnc2nc[nH]c12 , report its measured growth inhibition.
## Result -2

## Task Given the entry [O-][n+]1c2cccc(O)c2[n+]([O-])c2cccc(O)c21 , report its measured growth inhibition.
## Result 0

## Task Given the entry CCOC(=O)C1=C(C(=O)OCC)C2(c3ccccc3)N(O1)c1ccccc1C2(C)C (stereo not drawn) , report its measured growth inhibition.
## Result 31

---

experiment: NCI Yeast Anticancer Drug Screen. Data for the rad18 strain (AID 177); conditions: S. cerevisiae rad18 mutant growth inhibition; at 33.0 µM; hits give high values
Compounds without any hit were thinned out: in the full panel of roughly 79,000, 15% have a hit.
readout name: growth inhibition (%)
Output spec: scalar in %, unitless text.

CCCCCCCCCCCCCCCCP(=O)(O)OP(=O)(O)OCC1OC(n2ccc(N)nc2=O)C(O)C1O (stereo unspecified); 0

## Task Given the entry COc1cccc2c1C(=O)c1c(O)c3c(c(O)c1C2=O)C[C@@](O)(C(C)=O)C[C@@H]3OC1CC(N)C(OC2CC(O)C(O)C(C)O2)C(C)O1 (stereo partly specified) , report its measured growth inhibition.
## Result -21

## Task Given the entry C=C[C@H]1CN2CC[C@H]1C[C@@H]2[C@@H](O)c1ccnc2ccccc12 , report its measured growth inhibition.
## Result -17

## Task Given the entry CC(C)CC(NC(=O)C(N)C(C)C)C(=O)NC(CCCCN)C(=O)Nc1ccc(N(CCCl)CCCl)cc1 (stereo unspecified) , report its measured growth inhibition.
## Result -20

---

Experiment: NCI Yeast Anticancer Drug Screen. Data for the mlh1 rad18 strain (AID 175)
Settings: S. cerevisiae mlh1 rad18 strain growth inhibition; at 50.0 µM (retest, dose inferred, filed as 5.0); hits give high values
Description: Growth inhibition of yeast strains with defined genetic alterations is measured as a screen for potential anti-cancer activity. Selected strains with alterations in DNA damage repair or cell cycle control were exposed to compounds and growth inhibition was measured relative to vehicle treated controls. The strain used in this assay is mlh1 rad18
This is part of a sample that, as a whole, favours compounds with a hit. Of some 79,000 tested, about 15% had one in any assay. *1 amine or outer side, *2 acyl side, *3 side chain or, on linkers, in order; H or OH if unused. Where a SMILES comes first, the peptide text is derived from it. [ ]: non-standard residue; d: D form. X2 = CC[C@H](C)[C@H](OC(=O)[C@@H](C)[C@@H](CC)N[*:1])C(=O)[*:2]; X3 = C[C@H](N[*:1])C(=O)C(C)(C)C(=O)[*:2]; NMeY = CN[C@@H](Cc1ccc(O)cc1)C(=O)O; NMeL = CN[C@@H](CC(C)C)C(=O)O; NMeV = CN[C@H](C(=O)O)C(C)C
readout name: growth inhibition (%)
Output spec: scalar in %, unitless text.

c1ccc2c(NCCCCCCCCNc3c4ccccc4nc4ccccc34)c3ccccc3nc2c1; 97
CCCC[CH2][Sn]([CH2]CCCC)[CH2]CCCC.CCCC[CH2][Sn]([CH2]CCCC)[CH2]CCCC; 100

## Task Given the entry OC1CCCC[CH]1[Hg][Cl] (configuration not stated) , report its measured growth inhibition.
## Result 100

## Task Given the entry C[As](c1ccc(Br)cc1)c1ccc(Br)cc1 , report its measured growth inhibition.
## Result 22

## Task Given the entry CCC1(OC(=O)CN)C(=O)OCc2c1cc1n(c2=O)Cc2cc3ccccc3nc2-1 (configuration not stated) , report its measured growth inhibition.
## Result -13

## Task Given the entry CC[C@H](C)[C@@H]1OC(=O)[C@@H](C)[C@@H](CC)NC(=O)[C@H](C)NC(=O)C(C)(C)C(=O)[C@H](C)NC(=O)[C@H](Cc2ccc(OC)cc2)N(C)C(=O)[C@H](C(C)C)N(C)C(=O)CNC(=O)[C@H](CC(C)C)N(C)C(=O)CNC1=O (cyclo(A[X2]G[NMeL]G[NMeV][NMeY](Me)[X3])) , report its measured growth inhibition.
## Result 97

## Task Given the entry CCCCCCCC[N+](CCCC)(CCCC)CCCC (tested in a mixture with another compound) , report its measured growth inhibition.
## Result 99
